Please respond with reported GFP response vs DMSO for every item in the list.
# test name: RPL19A-GFP modulators, yeast TOR pathway, confirmation, cell-based, S. cerevisiae, flow cytometry, cherry picks, mother/daughter gates (AID 2270)
# measurement setup: S. cerevisiae RPL19A-GFP strain, 3 h, measured here: daughter cell gate, at 10 µM, stronger effect = lower value, 100 = same GFP as DMSO wells
Give bare numbers, in %.

Answered examples (6):
| molecule | readout kind | unit of measurement | recorded measurement |
| --- | --- | --- | --- |
| CN(C(=O)c1ccccc1Cl)c1ccccc1 | GFP response vs DMSO | % | 100 |
| COc1ccc(OC(=O)c2cccc(S(=O)(=O)N3CCCC3)c2)cc1 | GFP response vs DMSO | % | 95.4 |
| CCn1c(=O)c(C(=O)NCCc2ccccc2)c(O)c2ccccc21 | GFP response vs DMSO | % | 99.8 |
| O=C(Nc1ccccc1C(F)(F)F)c1cc(-c2ccc(O)cc2)on1 | GFP response vs DMSO | % | 97 |
| COc1ccc(/C=C2\Sc3ccc(C(=O)N4CCc5ccccc5C4)cc3N(C)C2=O)cc1 | GFP response vs DMSO | % | 97.4 |
| Cc1cc(-c2csc3nc[nH]c(=S)c23)cc(C)c1C | GFP response vs DMSO | % | 98.1 |

# map each molecule to its GFP response vs DMSO
1. COC(=O)c1ccc(/C=N/NC(=O)c2cccc(F)c2)cc1
2. Cc1ccc(S(=O)(=O)Nc2cc(Cl)c(O)c3ncccc23)cc1
3. COc1ccc(OC)c(C(=O)/C=C/c2ccccc2C(F)(F)F)c1
4. Cc1ccc(SC(=O)c2c(C)noc2-c2cc(C)on2)cc1
5. Cc1ccc(NC(=S)N2CCSC2c2cccs2)cc1 (centres undefined)
6. O=c1[nH]c(CCl)nc2cc(-c3ccc(Cl)cc3)sc12
7. O=C1C2C3C=CC(CO)(O3)C2C(=O)N1c1ccccc1-c1ccccc1 (centres undefined)
8. N#CC(C(=O)NCc1ccccc1)c1nc2ccccc2nc1N1CCCC1 (centres undefined)

Key:
[99.3, 94.2, 95.8, 102, 98.1, 94.4, 117, 102]
